Value source: the supplement of paper PMC13380429

So I've got a bunch of compounds here, and I need their drug sensitivity score values.
Tested on: Vero E6
Assay Text: drug sensitivity score (DSS) for viability; higher = more toxic; extreme values may be limits of the assay
Assay Setup: 72 h
Reply: number alone, nothing else.

Item: Cc1cc(/C=C2\SC(=O)N(c3ccccc3)C2=O)c(C)n1-c1cccnc1 | drug sensitivity score: 0

Item: NC(=O)c1cn(Cc2c(F)cccc2F)nn1 [rufinamide] | drug sensitivity score: 0

Item: Clc1cccc(N2CCNCC2)c1 | drug sensitivity score: 0

Item: Cc1cccc2c1CC[C@H](CN1CCC(c3c(Cl)cccc3Cl)CC1)C[C@@H]2O | drug sensitivity score: 2.2

Item: O=C(CCCCCN1C(=O)c2cccc3cccc(c23)C1=O)NO | drug sensitivity score: 9.3

Item: Cc1ccc2c(c1)[C@]13CCCC[C@@H]1[C@H](C2)N(C)CC3 | drug sensitivity score: 0

Item: COc1ccc(CC(C)NCC(O)c2ccc(O)c(NC=O)c2)cc1 (centres undefined) | drug sensitivity score: 0

Item: CCCCOc1nc(N)c2c(n1)N(Cc1cccc(CN3CCCC3)c1)CC(=O)N2 | drug sensitivity score: 0

Item: Cc1nc(=O)c2cc(CN(C)c3ccc(C(=O)N[C@@H](CCC(=O)O)C(=O)O)s3)ccc2[nH]1 | drug sensitivity score: 10.7

----------
System: U2OS
Assay Text: cell viability relative to DMSO; higher = less toxic
Assay Setup: 72 h; 10 nM
Observation Type: cell viability (%)
Kindly provide the numeric value in % only, without the unit symbol.

Item: CNC(=O)c1ccccc1Nc1nc(Nc2ccc(N3CCOCC3)cc2OC)ncc1Cl | cell viability: 100

Item: CC(C)(Cc1c[nH]c2ccc(Cl)cc12)NCCOc1ccccc1OCC1CC1 | cell viability: 102

Item: O=c1c(O)c(-c2ccc(O)cc2O)oc2cc(O)cc(O)c12 | cell viability: 93.7

Item: CC(=O)O[C@@]12CO[C@@H]1C[C@H](O)[C@@]1(C)C(=O)[C@H](O)C3=C(C)[C@@H](O)C[C@@](O)([C@@H](OC(=O)c4ccccc4)[C@H]21)C3(C)C | cell viability: 99.3

----------
System: Calu-3
Assay Text: cell viability relative to DMSO; higher = less toxic
Assay Setup: 72 h; 10 nM
Observation Type: cell viability (%)
Kindly provide the numeric value in % only, without the unit symbol.

Item: CCN(CCNC(=O)Nc1ccccc1Br)c1cccc(C)c1 | cell viability: 96.3

Item: O=C(Nc1ccc(Cl)cc1)Nc1cccc(-c2cccc(N3CCCC3)n2)c1 | cell viability: 98.9

Item: CN1CCC[C@@H](CC2c3ccccc3Sc3ccccc32)C1 (racemic) | cell viability: 100

Item: Cc1ccc2c(c1)[C@]13CCCC[C@@H]1[C@H](C2)N(C)CC3 | cell viability: 95.5

Item: CC(=O)Nc1ccc(C(=O)NC(C)(C)C)cc1 | cell viability: 105

Item: C[C@]12C/C(=C/O)C(=O)C[C@@H]1CC[C@@H]1[C@@H]2CC[C@@]2(C)[C@H]1CC[C@]2(C)O | cell viability: 97.6

Item: C[C@@H](C1=C(CCN(C)C)Cc2ccccc21)c1ccccn1 (racemic) | cell viability: 113

Item: CO[C@H]1C[C@H](O[C@H]2CC[C@@]3(C)[C@H](CC[C@@H]4[C@@H]3CC[C@]3(C)[C@@H](C5=CC(=O)OC5)[C@@H](OC(C)=O)C[C@]43O)C2)O[C@@H](C)[C@@H]1O | cell viability: 89.3
